System: MDA-MB-231
methodDescription: Effective concentration of compound with DFMO tested in vitro for ability to inhibit polyamine transport and growth of MDA-MB-231 breast carcinoma cell line; Cytotoxic
Format: functional, cell-based
testContext: Homo sapiens
measurementName: EC50 (µM)

chemicalString	measurementName	numericValue
CCCCCCC(=O)NCCCNCCCCNCCCN	EC50	63
